Entry source: patent US20210347873A1

Reported MFI values for the following binders.
Target: T1, cynomolgus BLyS (full length, arginine to histidine at position 132) on CHO-K1 cells (cynomolgus, UniProt Q9Y275 1-285 (human entry))
T1 construct: also called cyno BLyS; CHO-K1 cynoBLyS
T1 chain: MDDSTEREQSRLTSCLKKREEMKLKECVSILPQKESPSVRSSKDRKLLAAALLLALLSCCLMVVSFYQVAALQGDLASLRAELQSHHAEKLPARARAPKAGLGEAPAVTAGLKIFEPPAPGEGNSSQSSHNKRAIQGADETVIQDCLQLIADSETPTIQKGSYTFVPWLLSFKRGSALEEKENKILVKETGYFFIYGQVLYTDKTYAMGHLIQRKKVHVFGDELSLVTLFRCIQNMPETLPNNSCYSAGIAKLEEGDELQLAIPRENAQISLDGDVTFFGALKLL
Experiment: flow cytometry, CHO-K1 cynoBLyS cells, antibody 0.107 nM
RECORDED_METRIC: MFI (MFI)

* L9G7 (antibody, V domains shown, From a human naive scFv phage library; also called human BLyS antibody L9G7) VH: QIQLVQSGAEVKKPGASVKVSCKASGYTFTSYGISWVRQAPGQGLEWMGWISAYNGNTNYAQKLQGRVTMTTDTSTSTAYMELRSLRSDDTAVYYCARTYYDILTGYYYYGMDVWGQGTTVTVSS VL: EIVLTQSPGTLSLSPGERATLSCRTSQSVDTYLAWYQQKPGQAPRLLIYDASNRATGIPARFSGSGSGTDFTLTISSLEPEDFAVYYCQQRSNWPLTFGGGTKVEIK | 387
* 67A2E1D10 (antibody, V domains shown, Mouse hybridoma monoclonal antibody purified on Protein G) VH: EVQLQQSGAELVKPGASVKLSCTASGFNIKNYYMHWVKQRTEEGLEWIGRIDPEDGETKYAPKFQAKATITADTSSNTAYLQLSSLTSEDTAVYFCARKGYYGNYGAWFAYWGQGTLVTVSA VL: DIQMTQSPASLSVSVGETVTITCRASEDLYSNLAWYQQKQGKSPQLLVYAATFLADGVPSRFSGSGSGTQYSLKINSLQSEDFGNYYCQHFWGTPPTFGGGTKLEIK | 76.6
* 20D1B6E9E5 (antibody, V domains shown, Mouse hybridoma monoclonal antibody purified on Protein G) VH: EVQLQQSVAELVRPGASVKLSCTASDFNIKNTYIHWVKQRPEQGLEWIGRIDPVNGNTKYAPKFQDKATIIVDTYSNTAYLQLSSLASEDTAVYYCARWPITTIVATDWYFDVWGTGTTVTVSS VL: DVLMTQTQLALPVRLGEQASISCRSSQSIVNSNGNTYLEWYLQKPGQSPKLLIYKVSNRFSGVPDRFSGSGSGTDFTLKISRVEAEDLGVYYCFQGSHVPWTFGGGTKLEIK | 349
